test name: Primary qHTS for Inhibitors of ATXN expression; note: nearly all actives have a fitted effect of over 55% in size
measurement setup: HEK-293 ATXN2-luciferase reporter, luminescence, 24 h; series mostly up to 57 µM
Hit rate of the full screen: of about 360,000 compounds, about 2,600 (0.72%) were called active. Roughly 5% stayed inconclusive and do not appear here. Calls come from the whole dose curve; as a rule, active = well fitted inhibition curve with a large enough effect; inconclusive = small, poorly fitted or top-dose-only effect; inactive = no such curve, though single readings can be large or run the other way. For the sample, actives were picked, then their nearest neighbours and some compounds at random.
API: response.call in t = active, f = inactive

Example results:
[
  {
    "compound": "CC(Oc1ccc(Br)cc1)C(=O)NC1CCCCCC1 (stereo unspecified)",
    "label class": "f"
  },
  {
    "compound": "COc1ccc(C(=O)COC(=O)CCCC(=O)Nc2cc(C(F)(F)F)ccc2Cl)cc1",
    "label class": "f"
  }
]

Inquiry: State the result this test recorded for `CCc1nc2c(OCc3ccc(Cl)cc3Cl)cccn2c1N(C)C(=O)C(C)C` .
Reply text: t

Inquiry: State the result this test recorded for `CCCCOc1ccc(CN2C(=O)C(=O)c3cc(Br)cc(C)c32)cc1OC` .
Reply text: t

Inquiry: State the result this test recorded for `CN(Cc1ccc(F)cc1)C(=O)CN1C(=O)c2ccccc2S1(=O)=O` .
Reply text: f

Inquiry: State the result this test recorded for `O=C(/C=C/Sc1ncn[nH]1)c1ccc(Cl)cc1` .
Reply text: t

Inquiry: State the result this test recorded for `O=C(Nc1ccnn1C1CCN(Cc2cccc(OCCO)c2)CC1)C1CCCC1` .
Reply text: f
